test: Pharmacokinetics in monkeys on Day 1 and Day 27; details: female, monkey, in vivo, 15 mg/kg, Day 27, 15 mg/kg, female; read-out: AUC0-24
attributeMeasured: AUC(0-t)
Write the figure, then the unit, nothing else.

Recorded AUC(0-t) (compound Cc1nc2cccc(N)c2c(=O)n1C1CCC(=O)NC1=O (stereo not shown) [compound of Formula I] ): 75000 ng·h/mL

----------
test: Pharmacokinetics in monkeys on Day 1 and Day 27; settings: male, monkey, in vivo, 0.15 mg/kg, Day 1, 0.15 mg/kg, male
attributeMeasured: Tmax

Recorded Tmax (molecule Cc1nc2cccc(N)c2c(=O)n1C1CCC(=O)NC1=O (stereo not shown) ): 2 to 4 h
